# Target Of Assay: BACE (recombinant human BACE catalytic domain, expressed in CHO cells as BACE-T-IgG, IgG1 removed with thrombin) (human) (UniProt P56817)
# Sequence (P56817 43-460 limits assumed, form in doubt): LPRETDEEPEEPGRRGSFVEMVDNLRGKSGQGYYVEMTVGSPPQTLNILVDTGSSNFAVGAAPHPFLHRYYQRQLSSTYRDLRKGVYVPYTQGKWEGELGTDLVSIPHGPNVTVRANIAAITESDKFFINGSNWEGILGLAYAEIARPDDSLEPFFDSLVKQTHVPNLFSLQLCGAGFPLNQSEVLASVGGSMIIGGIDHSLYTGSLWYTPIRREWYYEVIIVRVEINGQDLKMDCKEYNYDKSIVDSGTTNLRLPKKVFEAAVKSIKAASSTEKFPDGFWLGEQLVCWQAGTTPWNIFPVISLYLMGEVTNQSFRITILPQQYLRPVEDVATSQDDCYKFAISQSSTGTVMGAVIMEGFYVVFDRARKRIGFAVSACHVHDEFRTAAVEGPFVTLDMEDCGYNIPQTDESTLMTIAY
# Protocol Notes: ITC, Dulbecco's PBS, pH 7.0, 25° C.
Readout Label: pKd
A value of pKd is the negative decimal logarithm of a concentration given in moles per litre.

Assign pKd to the following record: Ac-HWPFFIRS-NH2 [BMS-655507 (Ac-His-Trp-Pro-Phe-Phe-Ile-Arg-Ser)]
6.04

Origin of the recorded values: patent US20070149763A1
